target: human recombinant 15-PGDH (Homo sapiens); experiment: Recombinant 15-PGDH enzymatic inhibition assay (PGDH-Lumi, NADH signal); details: recombinant 15-PGDH; 15 min pre-incubation, 60 min reaction with PGE2 and NAD+, NADH signal
Sequence (P15428 whole entry): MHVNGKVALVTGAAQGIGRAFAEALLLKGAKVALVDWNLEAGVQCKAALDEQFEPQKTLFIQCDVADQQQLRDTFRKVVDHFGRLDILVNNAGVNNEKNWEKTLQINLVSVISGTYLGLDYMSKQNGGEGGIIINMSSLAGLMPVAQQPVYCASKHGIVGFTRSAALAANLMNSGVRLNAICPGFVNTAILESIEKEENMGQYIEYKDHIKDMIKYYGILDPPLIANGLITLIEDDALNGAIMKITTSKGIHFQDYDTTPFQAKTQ
pIC50: −log10 of the molar value.

{"columns": ["compound", "pIC50"],
 "data": [
  ["CO[C@H]1C[C@](O)(c2cc3cnc(-c4cnc5nn(C)cc5c4)nc3s2)C1 [Compound C94C]", 8.70],
  ["CO[C@H]1C[C@H]([C@@H](O)c2cc3ccc(-c4cnc5nn(C)cc5c4)nc3s2)C1 (single isomer, unassigned) [Compound B88RT]", 9.28],
  ["Cn1cc2cc(-c3ccc4cc([C@H](O)C56CC(C(F)(F)F)(C5)C6)sc4n3)cnc2n1 (single isomer, unassigned) [Compound B91R]", 9.26],
  ["Cn1cc2cc(-c3cnc4cc([C@@H](O)C5CC(F)(F)C5)sc4n3)cnc2n1 [Compound B92S]", 8.29],
  ["Cc1cn2ncc(-c3ccc4cc(C5(O)CC(F)(F)C5)sc4n3)cc2n1 [Compound C54]", 8.45],
  ["Cn1cc2cc(-c3ccc4cc(C(O)CCC(F)(F)F)sc4c3)cnc2n1 (stereo not shown) [Compound B60]", 8.52],
  ["Cn1cc2cc(-c3ncc4cc([C@]5(O)C[C@@H](C(F)(F)F)C5)sc4n3)cnc2n1 [Compound C71C]", 9.27]
]}
